- target desc: T1, human IL-17A with C-terminal Avi-tag, biotinylated, immobilized on BLI sensors (human, UniProt Q16552 24-155, biotin on the C-terminal Avi-tag (BirA))
- T1 construct: also called biotinylated IL-17A; not shown: C-terminal Avi-tag
- T1 sequence (Q16552 24-155): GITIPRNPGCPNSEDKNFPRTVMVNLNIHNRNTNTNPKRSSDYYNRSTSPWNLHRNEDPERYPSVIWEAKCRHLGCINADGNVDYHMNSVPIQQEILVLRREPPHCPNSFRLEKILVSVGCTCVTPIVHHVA
- assay details: BLI, biotinylated IL-17A immobilized on streptavidin sensors, monovalent VHH as analyte (20, 100 nM), 2:1 heterogenous fit, low affinity component
endpoint name: KD2 (nM)

P: Bm44G07 (VHH, Class B, second generation) VHH: QVQLVQSGGGLVQTGGSLRLSCSVSGDISSQSAMGWYRQVPGRQRELVAMIHTTKGDTYYADSVKDRFTISRINANNTIHLQMNNLKPEDTAIYYCTHNEPGDLYMGQGTQVTVSS
Q: Bm42A09 (VHH, Class B, second generation) VHH: QVQLVESGGGLVRTGGSLRLSCSVSGDISSQSAMGWYRQVPGRQRELVAMIHTTKGDTYYADSVKGRFTISRINANNTIYLQMNNLKPEDTAIYYCTHNEPGDLYMGQGTLVTVSS
R: Re42F08 (VHH, Class B, first generation) VHH: QVQLVESGGGLVKAGGSLRLSCVVSGHTSEISAMGWYRQAPGKQRELVALITSRSGDTHYSDSVKGRFSISRDNAKNTMYLQMNSLNPDDTAVYYCVHNEPGHLYMAQGTQVTVSS
S: Bm44B04 (VHH, Class B, second generation) VHH: QVQLVESGGGLVRTGGSLRLSCSVSGDISSQSAMGWYRQVPGRQRELVAMIHTTKGDTYYADSVKGRFTISRINANNTIYLQMNNLKPEDTAIYYCTHNEPGDLYMGQGTQVTVSS
Query :: Order by KD2, smallest first, the items presented above. A ranking is expressed here by listing the labels in the requested order.
Result :: S, R, P, Q
(S: 25 nM, R: 60 nM, P: 120 nM, Q: 300 nM)

Entry source: patent US20260209334A1
